experiment: in vitro; settings: human
measured-attribute: CC50

compound	measured-attribute	measured-value
C[C@H](NP(=O)(OC[C@@]1(N=[N+]=[N-])O[C@@H](n2ccc(N)nc2=O)[C@H](O)[C@@H]1F)Oc1cccc2ccccc12)C(=O)OCc1ccccc1 (stereo partly drawn) [Compound I-5]	CC50	91.2 µM
CC(C)OC(=O)[C@H](C)NP(=O)(OC[C@@]1(N=[N+]=[N-])O[C@@H](n2ccc(N)nc2=O)[C@H](O)[C@@H]1F)Oc1cccc2ccccc12 (stereo partly drawn) [Compound I-4]	CC50	> 100 µM
CCOC(=O)[C@H](C)NP(=O)(OC[C@@]1(N=[N+]=[N-])O[C@@H](n2ccc(N)nc2=O)[C@H](O)[C@@H]1F)Oc1cccc2ccccc12 (stereo partly drawn) [Compound I-6]	CC50	> 100 µM
